Value source: ChEMBL document CHEMBL1201862

measured_target: UniProt P00519
Sequence (P00519 whole entry): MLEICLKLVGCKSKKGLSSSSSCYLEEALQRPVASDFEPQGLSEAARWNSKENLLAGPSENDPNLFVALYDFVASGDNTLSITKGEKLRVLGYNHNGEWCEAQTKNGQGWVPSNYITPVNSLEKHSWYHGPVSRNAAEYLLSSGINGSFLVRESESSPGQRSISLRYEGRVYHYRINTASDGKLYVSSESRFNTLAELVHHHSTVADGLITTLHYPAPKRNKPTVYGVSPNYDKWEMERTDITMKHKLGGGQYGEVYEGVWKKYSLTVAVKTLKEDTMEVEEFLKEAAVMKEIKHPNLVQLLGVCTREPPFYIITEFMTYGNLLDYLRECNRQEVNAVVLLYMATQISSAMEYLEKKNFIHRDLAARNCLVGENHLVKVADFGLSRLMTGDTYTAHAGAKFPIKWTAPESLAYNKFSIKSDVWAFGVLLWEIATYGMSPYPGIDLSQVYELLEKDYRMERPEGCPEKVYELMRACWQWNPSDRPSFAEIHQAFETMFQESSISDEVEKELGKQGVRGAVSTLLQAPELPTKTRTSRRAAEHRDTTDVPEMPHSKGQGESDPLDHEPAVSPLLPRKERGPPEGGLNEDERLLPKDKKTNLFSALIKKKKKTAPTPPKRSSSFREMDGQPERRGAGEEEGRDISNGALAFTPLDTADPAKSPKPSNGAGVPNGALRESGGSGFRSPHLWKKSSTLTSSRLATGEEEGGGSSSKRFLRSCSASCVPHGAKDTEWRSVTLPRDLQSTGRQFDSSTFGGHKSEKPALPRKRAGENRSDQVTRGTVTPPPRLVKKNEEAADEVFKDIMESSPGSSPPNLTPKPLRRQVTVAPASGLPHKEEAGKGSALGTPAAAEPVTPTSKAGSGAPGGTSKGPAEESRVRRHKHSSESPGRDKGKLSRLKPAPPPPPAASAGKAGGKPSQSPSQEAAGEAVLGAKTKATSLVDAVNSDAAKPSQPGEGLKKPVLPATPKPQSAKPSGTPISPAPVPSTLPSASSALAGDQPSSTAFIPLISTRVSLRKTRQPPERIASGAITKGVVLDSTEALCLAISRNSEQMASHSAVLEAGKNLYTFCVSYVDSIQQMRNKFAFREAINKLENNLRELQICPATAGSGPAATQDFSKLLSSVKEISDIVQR
Format: functional
Activity calls are given as the source filed them.
Response enum: active, inactive

Worked examples, 3 compounds total:
> print(dat)
                                 cpd.smiles  measured.target  class.name
1  c1ccc(CNc2nc(Nc3cc(C4CC4)[nH]n3)c3sccc3n2)cc1   UniProt P00519      active
2  O=C(Nc1cccc(C(F)(F)F)n1)Nc1ccnc2cc(OC(F)F)ccc12   UniProt P00519    inactive
3  O=C(Nc1cccc(C(F)(F)F)n1)Nc1ccnc2cc(Cl)ccc12   UniProt P00519      active

Continue with the compound presented below.
What did the test return for O=c1[nH]c2cc(Br)cnc2[nH]1 ? active

----------
measured_target: Corticotropin-releasing factor receptor 2/Corticotropin-releasing factor-binding protein (Homo sapiens, UniProt P24387+Q13324)
Sequence (Q13324 whole entry): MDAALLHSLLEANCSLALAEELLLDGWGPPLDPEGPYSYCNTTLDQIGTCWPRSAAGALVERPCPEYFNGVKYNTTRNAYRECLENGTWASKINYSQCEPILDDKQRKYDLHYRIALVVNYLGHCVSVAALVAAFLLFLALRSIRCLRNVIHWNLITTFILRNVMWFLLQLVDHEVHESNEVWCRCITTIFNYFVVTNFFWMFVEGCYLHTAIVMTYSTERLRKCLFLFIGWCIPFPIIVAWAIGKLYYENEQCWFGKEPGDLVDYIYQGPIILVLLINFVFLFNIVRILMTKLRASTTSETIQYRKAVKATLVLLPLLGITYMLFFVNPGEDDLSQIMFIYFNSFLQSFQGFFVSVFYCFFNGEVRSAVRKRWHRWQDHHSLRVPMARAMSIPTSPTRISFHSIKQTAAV
Sequence (P24387 whole entry): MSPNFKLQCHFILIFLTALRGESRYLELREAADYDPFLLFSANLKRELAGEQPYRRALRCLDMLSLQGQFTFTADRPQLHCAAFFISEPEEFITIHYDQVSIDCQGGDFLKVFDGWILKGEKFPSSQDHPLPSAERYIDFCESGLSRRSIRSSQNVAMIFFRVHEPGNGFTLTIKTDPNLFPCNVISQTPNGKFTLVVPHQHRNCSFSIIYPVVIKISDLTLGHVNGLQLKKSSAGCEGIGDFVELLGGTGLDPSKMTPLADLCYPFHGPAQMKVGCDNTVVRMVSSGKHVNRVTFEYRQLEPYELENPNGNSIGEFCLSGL
experiment_notes: activators of CRF receptor 2 with binding protein – uHTS hits, confirmation (AID 602473)
Assay type: functional
condition_context: read-out: EC50_Mean
Activity calls are given as the source filed them.
Exercise: for every item that follows, state its recorded EC50.

Example entries and their recorded answers appear below.
> print(dat)
                                   compound              result
1  O=C(O)c1ccc(-c2nc(-c3ccc(Cl)cc3Cl)cs2)cc1  > 53 µM (inactive)
2  COc1ccc(C(=O)C2=C(O)C(=O)N(CCN(C)C)C2c2cccnc2)cc1C (configuration not stated)  > 53 µM (inactive)
3   Cc1c(CC(Cl)(Cl)Cl)c2c(n1O)CC(C)(C)CC2=O    15.9 µM (active)

Hey, quick one: what's EC50 for each of these?
1. O=S(=O)(NC1CCCCC1N1CCN(c2ccc(F)cc2)CC1)c1ccc(Cl)cc1 (configuration not stated)
2. C[C@H](CO)N1C[C@H](C)[C@@H](CN(C)C(=O)c2ccc3ccn(C)c3c2)OCc2cn(nn2)CCCC1=O
3. Cc1ccc(Cl)cc1N1CCN(C(=O)Cc2c(C(=O)O)[nH]c3ccccc23)CC1

1: 3.94 µM (active); 2: > 53 µM (inactive); 3: > 53 µM (inactive)

Hey, quick one: what's EC50 for each of these?
1. COc1ccc(C(=O)c2sc3nc(C)cc(-c4cccs4)c3c2N)cc1
2. O=C(CC(c1ccccc1)c1ccccc1O)NCc1ccccc1Cl (configuration not stated)
3. CN(C)S(=O)(=O)c1ccc(C(=O)OCC(=O)Nc2ccc(OC(F)F)cc2)cc1
4. CCOc1ccc(NS(=O)(=O)c2ccc(C(=O)NCC(c3ccco3)N3CCCC3)cc2)cc1 (configuration not stated)
5. O=C(CSCc1ccccc1Br)NNC(=S)NCc1ccco1
6. CCOC(=O)/C=c1/s/c(=C/c2ccc3cc(OC)ccc3c2)c(=O)n1CC(=O)NCC1CCCO1 (configuration not stated)

1: 6.58 µM (active); 2: > 53 µM (inactive); 3: > 53 µM (inactive); 4: 6.17 µM (active); 5: > 53 µM (inactive); 6: 7.75 µM (active)

----------
Each entry below carries its measured AC50, system: Cytochrome P450 2C9 (Homo sapiens, UniProt P11712).
Sequence (P11712 whole entry): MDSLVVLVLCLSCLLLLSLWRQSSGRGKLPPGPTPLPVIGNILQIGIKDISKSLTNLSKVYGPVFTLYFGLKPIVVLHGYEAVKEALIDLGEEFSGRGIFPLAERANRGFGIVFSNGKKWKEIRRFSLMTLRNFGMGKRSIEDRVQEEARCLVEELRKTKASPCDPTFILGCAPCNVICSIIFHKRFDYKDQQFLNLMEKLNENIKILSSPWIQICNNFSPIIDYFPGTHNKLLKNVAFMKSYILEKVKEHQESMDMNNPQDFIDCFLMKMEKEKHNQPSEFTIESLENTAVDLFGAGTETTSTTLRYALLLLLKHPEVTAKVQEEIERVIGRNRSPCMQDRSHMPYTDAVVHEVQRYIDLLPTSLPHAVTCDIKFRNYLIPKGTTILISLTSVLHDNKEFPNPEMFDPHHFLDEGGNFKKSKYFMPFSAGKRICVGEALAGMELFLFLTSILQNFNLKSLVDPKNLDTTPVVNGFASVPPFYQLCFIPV

Example entries and their recorded answers appear below.
> print(dat)
                                   molecule  readout                  result
1  COc1ccc(/C=N/n2cnc3c4cc(Br)ccc4nc-3c2O)cc1CN1CCOCC1     AC50  3.55 µM (inconclusive)
2  Cc1nc2ccc(S(=O)(=O)NC(CC(C)C)C(=O)O)cc2s1 (centres undefined)     AC50  12.6 µM (inconclusive)
3  CC(=O)O[C@]1(C(C)=O)CC[C@@H]2[C@@H]3C=C(C)C4=CC(=O)CC[C@@]4(C)[C@H]3CC[C@]21C     AC50  12.6 µM (inconclusive)

Consider now this further molecule.
Returns the measured AC50 for the input molecule. Input: COC(=O)[C@@H]1CC[C@H](C)[C@@H](c2ccc(C)cc2)N1C(=O)c1ccc(/C=N\O[C@@H](C)c2cn([C@H]3COC[C@H]3O)nn2)cc1 3.16 µM (inconclusive)

----------
measured_target: Rac GTPase-activating protein 1 (Homo sapiens)
Sequence (Q9H0H5 whole entry): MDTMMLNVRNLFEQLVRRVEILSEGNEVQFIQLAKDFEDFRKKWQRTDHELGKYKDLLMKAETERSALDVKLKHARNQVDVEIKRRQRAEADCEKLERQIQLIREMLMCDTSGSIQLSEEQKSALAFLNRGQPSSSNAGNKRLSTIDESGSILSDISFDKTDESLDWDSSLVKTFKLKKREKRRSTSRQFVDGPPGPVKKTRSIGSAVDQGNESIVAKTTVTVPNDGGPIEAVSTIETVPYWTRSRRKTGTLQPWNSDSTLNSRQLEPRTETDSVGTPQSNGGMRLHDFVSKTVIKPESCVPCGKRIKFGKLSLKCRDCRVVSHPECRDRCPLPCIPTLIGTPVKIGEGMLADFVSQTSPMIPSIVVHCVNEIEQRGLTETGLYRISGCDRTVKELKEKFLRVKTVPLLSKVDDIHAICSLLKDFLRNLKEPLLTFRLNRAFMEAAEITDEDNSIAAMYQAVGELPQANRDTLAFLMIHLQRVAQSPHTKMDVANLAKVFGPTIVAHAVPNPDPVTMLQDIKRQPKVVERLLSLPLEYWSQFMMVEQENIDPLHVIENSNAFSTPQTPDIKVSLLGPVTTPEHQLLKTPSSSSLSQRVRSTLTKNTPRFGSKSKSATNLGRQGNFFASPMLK
experiment_notes: MgcRacGAP GTPase-activating activity inhibitors, confirmation, biochemical, ADP Hunter fluorescence, primary and confirmatory (AID 624330)
Type: functional
The source made the active and inactive calls.
Exercise: for every item that follows, state its recorded IC50.

> print(dat)
                                   compound  readout            result
1    COc1ccccc1NS(=O)(=O)c1cc(N)ccc1N1CCCC1     IC50  47.8 µM (active)
2            Oc1ccc(Nc2ccnc3cc(Cl)ccc23)cc1     IC50  28.1 µM (active)
3  COc1cc(/C=C/C(=O)OCC(=O)NNC(=O)c2cc(Cl)ccc2OC)ccc1O     IC50  60.5 µM (active)
4      Nc1sc(-c2ccccc2)c(Cc2ccccc2)c1C(=O)O     IC50  67.6 µM (active)

Hey, quick one: what's IC50 for each of these?
1. CC(C(=O)NC1CCCCC1)N1CCN(C)CC1 (stereo not drawn)
2. CC1=NN(c2ccc(C(=O)O)cc2)C(=O)/C1=C\c1ccc(OC(=O)c2cccs2)cc1

["93.7 µM (active)", "185 µM (active)"]

Hey, quick one: what's IC50 for each of these?
1. Oc1ccccc1CNc1ccc2c(c1)OCCO2
2. CCCn1c(=O)c2ccccc2n2c(SCCNCCO)nnc12

1: 94.9 µM (active); 2: 52.2 µM (active)

----------
measured_target: Carboxy-terminal domain RNA polymerase II polypeptide A small phosphatase 1 (Homo sapiens, UniProt Q9GZU7)
Sequence (Q9GZU7 whole entry): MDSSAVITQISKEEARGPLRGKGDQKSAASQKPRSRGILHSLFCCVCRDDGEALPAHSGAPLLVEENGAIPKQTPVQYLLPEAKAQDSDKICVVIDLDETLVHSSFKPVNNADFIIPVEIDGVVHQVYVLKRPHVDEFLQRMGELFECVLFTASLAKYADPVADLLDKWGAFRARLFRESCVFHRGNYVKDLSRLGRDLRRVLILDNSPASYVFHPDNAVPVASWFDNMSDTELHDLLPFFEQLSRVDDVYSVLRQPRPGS
experiment_notes: inhibitors of CTDSP1, concentration-response testing, biochemical assay, absorbance-based, actives from ultra-high-throughput screening (AID 540297)
Assay type: functional
Calls of active or inactive are those of the source.
Exercise: for every item that follows, state its recorded IC50.

Example entries and their recorded answers appear below.
> print(dat)
                                   compound  readout            result
1  CCOc1ccc(C=NNc2ccc(S(=O)(=O)Nc3ccccc3C(=O)O)cc2[N+](=O)[O-])cc1OC     IC50  3.51 µM (active)
2    Cc1ccc(C(=O)NNC(=O)c2ccc3ccccc3c2O)cc1     IC50  7.74 µM (active)
3  N#C/C(=C\c1ccc(OC(=O)c2cccs2)cc1)c1nc2ccccc2[nH]1     IC50  11.4 µM (active)
4  COc1cccc(C2c3c(-c4ccccc4)n[nH]c3C(=O)N2c2ccc(C(=O)O)cc2)c1 (stereo not given)     IC50  5.63 µM (active)

Consider now this further compound.
Returns the measured IC50 for the input compound. Input: CC(C)(CS(=O)(=O)[O-])NC(=O)CC[N+](C)(C)CCO 0.453 µM (active)

----------
measured_target: Heat shock factor protein 1 (Mus musculus)
Sequence (P38532 whole entry): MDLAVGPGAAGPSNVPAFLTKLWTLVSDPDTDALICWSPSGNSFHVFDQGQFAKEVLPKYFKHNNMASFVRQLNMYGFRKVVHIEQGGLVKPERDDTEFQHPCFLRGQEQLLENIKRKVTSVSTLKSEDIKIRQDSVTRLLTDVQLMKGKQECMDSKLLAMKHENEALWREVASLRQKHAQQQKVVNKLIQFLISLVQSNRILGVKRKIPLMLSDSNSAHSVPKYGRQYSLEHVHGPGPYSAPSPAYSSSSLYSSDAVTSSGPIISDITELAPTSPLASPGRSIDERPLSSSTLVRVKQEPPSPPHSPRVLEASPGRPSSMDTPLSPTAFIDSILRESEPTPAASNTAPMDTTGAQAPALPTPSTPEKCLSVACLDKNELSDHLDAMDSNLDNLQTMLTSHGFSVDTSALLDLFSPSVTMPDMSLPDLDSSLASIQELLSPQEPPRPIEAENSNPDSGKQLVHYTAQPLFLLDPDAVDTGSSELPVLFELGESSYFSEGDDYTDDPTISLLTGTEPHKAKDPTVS
experiment_notes: inhibition of MG132-induced HSE-luciferase signal, confirmation, cell-based, NIH3T3, luminescence, dose retest (AID 2382);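 also: NIH3T3 fibroblasts with HSF1-driven luciferase reporter stressed by proteasome inhibitor MG132; luminescence from HSF1-driven luciferase expression after 8 hours of MG132 stress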
Format: functional
Activity calls are given as the source filed them.
readout: EC50

Example entries and their recorded answers appear below.
> print(dat)
                                   compound                           measured.target                 result
1  Cc1cc(/C=c2/sc3nc4ccccc4n3c2=O)c(C)n1-c1ccccn1  Heat shock factor protein 1 (Mus musculus)     < 0.16 µM (active)
2  Cc1ccc(-n2nc3c(=O)n(CCCC(=O)N4CCC(C(N)=O)CC4)nc(C)c3c2C)cc1  Heat shock factor protein 1 (Mus musculus)  > 195 µM (not active)
3  O=C(c1ccc(-n2cncn2)c([N+](=O)[O-])c1)N1CCN(S(=O)(=O)c2ccccc2F)CC1  Heat shock factor protein 1 (Mus musculus)  > 195 µM (not active)
4  Cc1ccc(OCC(=O)c2cc(C)n(-c3ccccc3)c2C)c([N+](=O)[O-])n1  Heat shock factor protein 1 (Mus musculus)      0.623 µM (active)
5      O=C(Cc1ccccc1)Oc1ccccc1N1C(=O)CCC1=O  Heat shock factor protein 1 (Mus musculus)  > 195 µM (not active)
6  CCOc1cc(CNCC2CCCN2CC)cc(Cl)c1OC (configuration not stated)  Heat shock factor protein 1 (Mus musculus)       63.1 µM (active)

Hey, quick one: what's EC50 for each of these?
1. CCOc1ccc(/C=C2\SC(=O)N(CCNC(=O)C3COc4ccccc4O3)C2=O)cc1OC (configuration not stated)
2. Oc1ccc2ccccc2c1N=Nc1ccccn1
3. CN(C)S(=O)(=O)N1CCN(C(=O)N2CCCCC2)CC1
4. Cc1nc2c(cc1C(=O)N/N=C/c1ccc(O)c(O)c1)c(=O)n(C)c(=O)n2C
5. O=[N+]([O-])c1ccc(Nc2ccc(F)cc2)cc1
6. Cc1ccc(-n2nc(C)c3cc(C(=O)O)sc32)cc1
7. O=C(CCCc1nc(-c2ccccc2Cl)no1)NC1CCCC1
8. C/C(=N\NC(=O)C(N)=O)c1ccc(O)cc1O

["> 195 µM (not active)", "11.4 µM (active)", "> 195 µM (not active)", "> 195 µM (not active)", "> 195 µM (not active)", "> 195 µM (not active)", "> 195 µM (not active)", "> 195 µM (not active)"]

Hey, quick one: what's EC50 for each of these?
1. O=C(OCCCN1CCOCC1)c1ccc(O)c(O)c1
2. O=C1C=C(NCCN2CCOCC2)C(=O)c2cnccc21
3. CCc1cccc(NC(=O)C2CCCN(S(=O)(=O)c3cccs3)C2)c1 (configuration not stated)

["34.7 µM (active)", "10.4 µM (active)", "> 195 µM (not active)"]

Hey, quick one: what's EC50 for each of these?
1. CC(/C=N\NC(=O)c1cc(C)oc1C)=C\c1ccccc1
2. Cc1[nH]c2ccc(-c3nnc(SCC(=O)c4ccc(F)cc4)o3)cc2c1C
3. Cc1c(Cl)cccc1NC(=O)Nc1cnccn1
4. Cn1c(N)c(C(=O)Nc2ccc(-c3ccccc3)cc2)sc1=S
5. Cc1cc(C)c(S(=O)(=O)/N=C2\C=C(Nc3ccc(C(=O)O)cc3)C(=O)c3ccccc32)c(C)c1

1. > 195 µM (not active)
2. > 195 µM (not active)
3. > 195 µM (not active)
4. > 195 µM (not active)
5. 6.73 µM (active)
